Reported values of pIC50 for individual entries
# TESTED_ON: UniProtKB Q0P7K6
# PROCEDURE_TEXT: ClbP whole cell activity (inhibition) assay, fluorogenic substrate
# Type: cell-based, E. coli
pIC50: −log10 of the molar value.

CCCCCCCC(=O)N[C@H](CC(N)=O)C(=O)NCCc1cc(F)c(O)c(F)c1 [Compound CCLVI] = > 4.00
CCCCCCCC(=O)N[C@H](CC(N)=O)c1ncnn1Cc1ccccc1 [Compound CCCXII] = < 3.52
CCCCCCCC(=O)N[C@@H](CN[C@@H](C)C(=O)OC)CC(N)=O [Compound CCLXXX] = < 3.52
CCCCCCCCCC(=O)N[C@H](CC(N)=O)C(=O)NCCc1ccc(O)cc1 [Compound CCXXI] = > 4.00

Exercise: I'd like to know its pIC50. The molecule in question is CCCCCCCC(=O)N[C@H](CC(N)=O)C(=O)NCCc1cncs1 [Compound CCXXXII]
Key: > 4.00

Exercise: Would you kindly share the measured pIC50 for CCCCCCCC(N[C@H](CC(N)=O)C(=O)NCCc1ccccc1)C(F)(F)F (stereo partly shown) [Compound CCXIV] ?
Key: < 3.52

Exercise: Using the record for CN1CCC(CCCC(=O)N[C@H](CC(N)=O)C(=O)NCCc2ccc(O)cc2)CC1 [Compound CCCVIII] , report its pIC50.
Key: > 4.00

Exercise: Tell me the measured pIC50 of CCCCCCCC(=O)N[C@H](CC(N)=O)C(=O)N[C@@H](C)Cc1ccc(O)cc1 [Compound CCXLIV] , please.
Key: > 4.00

Exercise: Any idea what its pIC50 is? The molecule is CCCCCCCC(=O)N[C@H](CC(=O)NO)C(=O)NCCc1ccc(O)c(O)c1 [Compound CCXCIII]
Key: > 4.00

Exercise: Form field: reported pIC50 of CCCCCCCC(=O)N[C@H](CC(N)=O)C(=O)NCCCc1ccccc1 [Compound CCXIII]
Key: > 4.00

Exercise: I am curious: what pIC50 value has been reported for NC(=O)C[C@@H](NC(=O)CCCC1CCNCC1)C(=O)NCCc1ccc(O)cc1 [Compound CCLII] ?
Key: < 3.52

Exercise: Reported pIC50 for CCCCCCCCCC(=O)N[C@H](CC(N)=O)C(=O)NCCc1ccccn1 [Compound CCCIX] : what is it?
Key: > 4.00

Exercise: Can you look up the measured pIC50 of CCCCCCCC(=O)N[C@H](CC(N)=O)C(=O)C(=O)NCc1ccccc1 [Compound CCLXXXIII] for me?
Key: > 4.00

----------
Heads up, these compounds all have IC50 values measured for Full-length WT ClbP (Escherichia coli, UniProt Q0P7K6).

Previously resolved entries follow.
CCCCCCCC(=O)N[C@H](CC(N)=O)C(=O)NCCc1ccc(C)cc1 [Compound CXCVI] = < 100 µM
CCCCCCCC(=O)N[C@H](CC(N)=O)C(=O)N(CCc1ccc(O)cc1)C(C)C [Compound CCLXXVI] = < 100 µM
CC(=O)N[C@H](CC(N)=O)C(=O)NCCc1ccccc1 [Compound CCLXV] = 100 to 300 µM

Exercise: Bench note: what IC50 did CCCCCCCC(=O)N[C@H](CC(N)=O)C(=O)NCCc1ccsc1 [Compound CCVI] show?
Key: < 100 µM

Exercise: What IC50 value was documented for this compound, NC(=O)C[C@@H](NC(=O)CCCCCCCCC(F)(F)F)C(=O)NCCc1ccc(O)cc1 [Compound CCCIV] ?
Key: < 100 µM

----------
# TESTED_ON: UniProt Q0P7K6
pIC50: −log10 of the molar value.
MEASUREMENT_NAME: pIC50

CCCCCCCC(=O)N[C@H](CC(N)=O)C(=O)NCCc1ccc(O)cc1O = > 4.00
NC(=O)C[C@@H](NC(=O)CCC1CCCCC1)C(=O)NCCc1ccc(O)cc1 = > 4.00
CCCCCCCC(=O)N[C@H](CC(N)=O)C(=O)NCCn1cnnc1 = 3.52 to 4.00
NC(=O)C[C@@H](NC(=O)CCCC1CCCCCC1)C(=O)NCCc1ccc(O)cc1 = > 4.00
CCCCCCCC(=O)N[C@H](CC(N)=O)C(=O)NCCc1cccc(OC)c1 = > 4.00
CCCCCC(=O)N[C@H](CC(N)=O)C(=O)NCCc1ccc(C(F)(F)F)cc1 [Compound CCLIX] = 3.52 to 4.00
CCCCCCCC(=O)N[C@@H](CN[C@@H](C)C(=O)OC)CC(N)=O = 3.52 to 4.00

Exercise: # get_value(readout='pIC50', item= CCCCCCC(C)(C)C(=O)N[C@@H](CNCCc1ccccc1)CC(N)=O )
Key: 3.52 to 4.00

----------
# TESTED_ON: ClbP (Escherichia coli)
# PROCEDURE_TEXT: ClbP whole cell activity (inhibition) assay, fluorogenic substrate
# Format: cell-based, E. coli
Entries and their measured IC50 follow.

Worked cases, IC50 given:
CCCCCCCC(=O)N[C@H](CC(N)=O)C(=O)NCCc1ccncc1 = < 100 µM
NC(=O)C[C@@H](NC(=O)/C=C/CC1CCCC1)C(=O)NCCc1ccccc1 = > 300 µM
NC(=O)C[C@@H](NC(=O)CCCCCCC(F)(F)F)C(=O)NCCc1ccc(O)cc1 = < 100 µM
NC(=O)C[C@@H](NC(=O)CCCC1CCCCC1)C(=O)NCCc1ccccc1 = < 100 µM

Exercise: Fill in: IC50 of CCCCCCCC(=O)N[C@H](CC(N)=O)C(=O)NCCc1ccc(C(=O)OC)cc1 is ___
Key: < 100 µM

Exercise: What value of IC50 has been recorded for this entry: NC(=O)C[C@@H](NC(=O)CCC1CCCCC1)C(=O)NCCc1ccc(O)cc1
Key: < 100 µM

Exercise: Consider the compound shown here: CCCCCCCC(=O)N[C@](C)(CC(N)=O)C(=O)NCCc1ccccc1 What is its recorded IC50?
Key: > 300 µM

Exercise: I'd like to know its IC50. The compound in question is CCCCCCCC(=O)N[C@H](CC(N)=O)C(=O)NCCc1ccc(Cl)cc1
Key: < 100 µM

----------
# TESTED_ON: ClbP (Escherichia coli)
# PROCEDURE_TEXT: ClbP cell lysate activity (inhibition) assay, fluorogenic substrate
# Assay type: biochemical
# TEST_CONTEXT: ClbP Lysate Inhibition Assay: IC50, E. coli ClbP+ lysozyme-EDTA lysates, 5 μM fluorogenic substrate, inhibitor 0-300 μM, 37° C., singlicate
# Experimental: Cell Lysate Activity Assay 1) E. coli ClbP+ were taken from a frozen stock and streaked onto BHI plates. They were grown aerobically at 37° C. overnight in the incubator. […] 6) The plate was loaded into a spectrophotometer preheated to 37° C. The fluorescence was recorded every 2 min for 46 min. […] 7) The linear portion of the fluorescence increase was 0-20 min. The rate of fluorescence increase (A.U./min) for each well in an inhibitor series was normalized to the 0 μM inhibitor condition. […]
Listed compounds paired with reported IC50

CCCCCCCC(=O)N[C@H](CN[C@@H](C)C(=O)OC)CC(N)=O = > 300 µM

Exercise: Which IC50 reading was recorded for the compound CCCCCCCC(=O)N[C@H](CC(N)=O)C(=O)NCCc1ccc(=O)[nH]c1 ?
Key: > 300 µM

Exercise: # input compound: CCCCCCCC(=O)N[C@H](CC(N)=O)C(=O)NCCCc1ccccc1 ; wanted: its IC50
Key: < 100 µM

Exercise: For the compound CCCCCCCCCC(=O)N[C@H](CC(N)=O)C(=O)NCCc1ccc(O)cc1 , what IC50 is on record?
Key: < 100 µM

Exercise: Look at this compound and give its reported IC50. CCCCCCCC(=O)N[C@H](CC(N)=O)C(=O)NCCc1c[nH]cn1
Key: < 100 µM

Exercise: Which IC50 is reported for this compound? CCCCCCCC(=O)N[C@H](CC(N)=O)C(=O)NCCc1ccc(C(=O)OC)cc1
Key: < 100 µM

Exercise: Which IC50 is reported for this compound? CCCCCCCC(=O)N[C@H](CC(N)=O)C(=O)NCCc1cncs1
Key: < 100 µM

Exercise: Which IC50 reading was recorded for the compound CCCCCCCC(=O)N[C@H](CC(=O)NC)C(=O)NCCc1ccc(O)cc1 ?
Key: 100 to 300 µM

----------
# TESTED_ON: ClbP (Escherichia coli, UniProt Q0P7K6)
# PROCEDURE_TEXT: ClbP cell lysate activity (inhibition) assay, fluorogenic substrate
# Format: biochemical
# TEST_CONTEXT: ClbP Lysate Inhibition Assay: IC50, E. coli ClbP+ lysozyme-EDTA lysates, 5 μM fluorogenic substrate, inhibitor 0-300 μM, 37° C., singlicate
MEASUREMENT_NAME: IC50

Below: 3 compounds and their reported IC50.
CCCCCCCC(=O)N[C@H](CC(N)=O)C(=O)NCCc1ccc(F)cc1 = < 100 µM
CCCCCCCCCCCC(=O)N[C@H](CC(N)=O)C(=O)NCCc1ccc(O)cc1 = < 100 µM
CCCCCCCC(=O)N[C@H](CC(N)=O)C(=O)NCCC1CCNCC1 = < 100 µM

Exercise: Write down the reported IC50 of CCCCCCCC(=O)N[C@H](CC(N)=O)C(=O)NCCc1ccco1 , test system: ClbP (Escherichia coli, UniProt Q0P7K6).
Key: < 100 µM

Exercise: # query: IC50 | item NC(=O)C[C@@H](NC(=O)CCCC1CCCCC1)C(=O)NCCc1ccc(O)cc1 | system: ClbP (Escherichia coli, UniProt Q0P7K6)
Key: < 100 µM

Exercise: // fetch ClbP (Escherichia coli, UniProt Q0P7K6) IC50 for CN(CCCCCC(=O)N[C@H](CC(N)=O)C(=O)NCCc1ccc(O)cc1)Cc1ccccc1
Key: < 100 µM

Data provenance is patent US20230234917A1.
